System: T-47D cells
assay-procedure: WST-1 proliferation assay of T-47D cells
Type: cell-based, human
test-context: 4 days, OHT 10 or 20 μM, EN 10 μM, ETM 25 nM, FUL 1.0 μM, EXE 0.1 μM, Pab 50 nM, Doc 1.0 nM
Measured Single drug: absorbance at 450 nm as % of solvent control, listed per entry.
readout-type: Single drug: absorbance at 450 nm as % of solvent control

compound: C[C@]12CC[C@H]3[C@@H](CCC4=C(O)C(=O)CC[C@@]43C)[C@@H]1CC[C@@H]2O [4-OHT, 4-hydroxytestosterone]
recorded-value: 50 % of solvent control
//
compound: CC(=O)c1c(C)c2cnc(Nc3ccc(N4CCNCC4)cn3)nc2n(C2CCCC2)c1=O [Palbociclib]
recorded-value: 80 % of solvent control
//
compound: CNC(=O)c1ccc(N2C(=S)N(c3ccc(C#N)c(C(F)(F)F)c3)C(=O)C2(C)C)cc1F [Enzalutamide]
recorded-value: 62 % of solvent control
//
compound: C[C@]12CC[C@@H]3c4ccc(O)cc4C[C@@H](CCCCCCCCC[S+]([O-])CCCC(F)(F)C(F)(F)F)[C@H]3[C@@H]1CC[C@@H]2O (stereo partly shown) [Fulvestrant]
recorded-value: 38 % of solvent control
